molecular target: Paired box protein Pax-8 (Homo sapiens, UniProt Q06710); experiment: inhibitors of PAX8-driven TPO luciferase reporter, dose response, RMG-I cells, cherry-pick (AID 687027); assay type: functional, cell-based;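 also: luciferase reporter driven by Pax8 target thyroperoxidase promoter measured by SteadyGlo luminescence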
Sequence (Q06710 whole entry): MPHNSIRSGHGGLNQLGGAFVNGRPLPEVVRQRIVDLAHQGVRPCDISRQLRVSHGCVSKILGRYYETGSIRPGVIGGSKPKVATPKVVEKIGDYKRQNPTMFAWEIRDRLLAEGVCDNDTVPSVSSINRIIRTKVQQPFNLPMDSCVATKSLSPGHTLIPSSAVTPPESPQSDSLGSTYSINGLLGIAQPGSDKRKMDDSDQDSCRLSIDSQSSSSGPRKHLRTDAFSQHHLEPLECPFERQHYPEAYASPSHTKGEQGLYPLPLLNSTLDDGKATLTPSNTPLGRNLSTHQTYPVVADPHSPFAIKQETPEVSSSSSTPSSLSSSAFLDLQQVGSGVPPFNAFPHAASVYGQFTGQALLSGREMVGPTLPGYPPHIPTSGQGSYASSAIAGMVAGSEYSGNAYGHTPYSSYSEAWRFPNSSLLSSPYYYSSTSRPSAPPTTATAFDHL
Where a name gives a salt, the structure may show the parent alone. Active and inactive are the calls of the source.
Catalogue of AC50 values

# compound, AC50
records = [
    ("C[C@@H]1CCCCO[C@@H](CN(C)C(=O)NC2CCCCC2)[C@H](C)CN([C@@H](C)CO)C(=O)c2cc(NC(=O)Nc3ccc(C(F)(F)F)cc3)ccc2O1", "3.5 µM (active)"),
    ("O=C1c2c(O)ccc(O)c2C(=O)c2c(NCCNCCO)ccc(NCCNCCO)c21 [MITOXANTRONE HYDROCHLORIDE]", "0.69 µM (active)"),
    ("C[C@@H]1CN([C@@H](C)CO)C(=O)Cc2cc(NC(=O)Nc3ccc(F)cc3)ccc2O[C@H]1CN(C)Cc1ccc(Cl)c(Cl)c1", "5.72 µM (active)"),
    ("COc1cccc(-c2ccc([C@@H]3[C@@H]4CN(C(=O)C5CC5)C[C@H]3N4)cc2)c1", "3.06 µM (active)"),
    ("Cc1ccc(S(=O)(=O)Nc2ccc3c(c2)C(=O)N([C@@H](C)CO)C[C@@H](C)[C@@H](CN(C)Cc2ccc(C(F)(F)F)cc2)OCCCC[C@H](C)O3)cc1", "9.16 µM (active)"),
]

* * *

A collection of compounds and their measured AC50
target: UniProtKB P55212; assay: human caspase-6 inhibitors, dose response, biochemical, VEID-R110 fluorescence, cherry-pick (AID 720632)
Calls of active or inactive are those of the source.

# chem smiles, AC50
measured = [
    ("CC(=O)Nc1cccc2cc(S(=O)(=O)O)ccc12", "15.6 µM (active)"),
    ("COc1cc(NC(=O)COC(=O)c2ccc([N+](=O)[O-])s2)cc(OC)c1OC", "2.44 µM (active)"),
    ("Cc1ccc(C)n1-c1sc2c(c1C(=O)O)CCCC2", "6.02 µM (active)"),
    ("O=C1c2ccccc2C(=O)c2c([N+](=O)[O-])ccc(O)c21", "9.76 µM (active)"),
]

* * *

test system: BJ; test: cells; type: functional, cell-based; conditions: Homo sapiens
Active and inactive are the calls of the source.

# compound, EC50
rows = [
    ("COc1ccc(-c2cc3nc(C)n(N)c(=O)c3s2)cc1", "2.27 µM (active)"),
    ("C[n+]1c(-c2ccccc2)c2cc(N)ccc2c2ccc(N)cc21", "6.25 µM (active)"),
    ("COc1ccc(C(=O)/C=C/C(=O)N(CC(=O)NC2CCCCC2)Cc2ccccc2OC)c(O)c1", "3.7 µM (active)"),
    ("C/C=C/COC(=O)c1[nH]c2c(c1C)C(=O)CC(c1ccco1)C2 (stereo not given)", "2.76 µM (active)"),
    ("O=C(NC1CCCCC1)C(c1cccnc1)N(C(=O)CCl)c1cccc(Cl)c1 (stereo not given)", "5.05 µM (active)"),
]

* * *

This section lists AC50 readings for UniProt:P08684.
Sequence (P08684 whole entry): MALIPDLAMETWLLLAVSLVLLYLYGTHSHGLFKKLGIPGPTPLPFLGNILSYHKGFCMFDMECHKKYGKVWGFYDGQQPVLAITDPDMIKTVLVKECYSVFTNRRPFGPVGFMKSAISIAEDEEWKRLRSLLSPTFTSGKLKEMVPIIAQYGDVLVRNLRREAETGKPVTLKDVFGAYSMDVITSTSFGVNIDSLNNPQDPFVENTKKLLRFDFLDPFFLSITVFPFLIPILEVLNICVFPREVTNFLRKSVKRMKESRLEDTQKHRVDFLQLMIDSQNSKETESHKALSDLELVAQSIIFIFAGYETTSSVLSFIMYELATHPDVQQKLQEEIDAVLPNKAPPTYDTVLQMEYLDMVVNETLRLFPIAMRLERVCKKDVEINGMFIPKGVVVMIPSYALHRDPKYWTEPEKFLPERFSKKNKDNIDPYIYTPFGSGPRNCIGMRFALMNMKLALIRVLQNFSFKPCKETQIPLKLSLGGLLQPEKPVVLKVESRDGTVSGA

# molecule, AC50
measured = [
    ("COc1ccc(C(O)P(=O)(OC(C)C)OC(C)C)cc1OC (centres undefined)", "inconclusive"),
    ("CCCCC1(C)OC(=O)C(=Cc2ccc(N(CC)CC)cc2)C(=O)O1 (centres undefined)", "126 nM (inconclusive)"),
    ("O=C(c1cccc(F)c1)N1CCC2(CC1)CCN(c1ccncc1)CC2", "inconclusive"),
    ("Cc1c(-c2ccc(F)cc2)nc(N)c(C#N)c1-c1cccs1", "inconclusive"),
]
